test system: NCI-H716; experiment: cells; format: functional, cell-based; settings: Homo sapiens;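 also: growth inhibition of human NCI-H716 cells, measured by a cell viability assay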
Description: SANGER: Inhibition of human NCI-H716 cell growth in a cell viability assay.
pIC50: −log10 of the molar value.
pIC50 values by entry
readout: pIC50

[[record]]
compound = "Cc1cnc(-c2cnc(NCCNc3ccc(C#N)cn3)nc2-c2ccc(Cl)cc2Cl)[nH]1"
readout = "pIC50"
assay_value = "< 5.59"

[[record]]
compound = "CNC(=O)c1cc(Oc2ccc(NC(=O)Nc3ccc(Cl)c(C(F)(F)F)c3)cc2)ccn1"
readout = "pIC50"
assay_value = "< 5.40"

[[record]]
compound = "C[C@]1(O)C[C@@H](c2nc(-c3ccc4ccc(-c5ccccc5)nc4c3)c3c(N)nccn32)C1"
readout = "pIC50"
assay_value = "< 5.59"

[[record]]
compound = "O=C(/C=C/c1ccccc1)NC(NC(=S)Nc1cccc2cccnc12)C(Cl)(Cl)Cl (centres undefined)"
readout = "pIC50"
assay_value = "< 4.80"


---

system: NCI-H1623; assay: cells; format: functional, cell-based, Homo sapiens; details: Homo sapiens, NCI-H1623;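 also: cell viability assay used as the read-out for growth inhibition of NCI-H1623 cells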
Description: SANGER: Inhibition of human NCI-H1623 cell growth in a cell viability assay.
pIC50: −log10 of the molar value.
readout: pIC50

[[record]]
compound = "CC(=O)O[C@@H]1[C@@H](OC(C)=O)[C@@H](O)[C@H](Oc2c(-c3ccc(O)cc3)oc3cc(O)cc(O)c3c2=O)O[C@H]1C"
readout = "pIC50"
assay_value = "< 5.00"

[[record]]
compound = "COc1ccc(C2=N[C@@H](c3ccc(Cl)cc3)[C@@H](c3ccc(Cl)cc3)N2C(=O)N2CCNC(=O)C2)c(OC(C)C)c1"
readout = "pIC50"
assay_value = "< 5.10"

[[record]]
compound = "COc1cc([C@@H]2c3cc4c(cc3[C@@H](O[C@@H]3O[C@@H]5CO[C@@H](C)O[C@H]5[C@H](O)[C@H]3O)[C@H]3COC(=O)[C@H]23)OCO4)cc(OC)c1O [ETOPOSIDE]"
readout = "pIC50"
assay_value = 4.85

[[record]]
compound = "C=CCNC1=C2C[C@@H](C)C[C@H](OC)[C@H](O)[C@@H](C)/C=C(\\C)[C@H](OC(N)=O)[C@@H](OC)/C=C\\C=C(/C)C(=O)NC(=CC1=O)C2=O"
readout = "pIC50"
assay_value = "< 6.00"

[[record]]
compound = "CCC1=C[C@@H]2CN(C1)Cc1c([nH]c3ccccc13)[C@@](C(=O)OC)(c1cc3c(cc1OC)N(C)[C@H]1[C@@](O)(C(=O)OC)[C@H](OC(C)=O)[C@]4(CC)C=CCN5CC[C@]31[C@@H]54)C2"
readout = "pIC50"
assay_value = 7.55

[[record]]
compound = "CN(Cc1cnc2nc(N)nc(N)c2n1)c1ccc(C(=O)N[C@@H](CCC(=O)O)C(=O)O)cc1 [METHOTREXATE]"
readout = "pIC50"
assay_value = "< 6.70"

[[record]]
compound = "CN(c1ncccc1CNc1nc(Nc2ccc3c(c2)CC(=O)N3)ncc1C(F)(F)F)S(C)(=O)=O"
readout = "pIC50"
assay_value = "< 5.59"

[[record]]
compound = "Cn1cncc1[C@@](N)(c1ccc(Cl)cc1)c1ccc2c(c1)c(-c1cccc(Cl)c1)cc(=O)n2C"
readout = "pIC50"
assay_value = "< 4.80"


---

test system: SCH; assay: cells; assay type: functional, cell-based, Homo sapiens; conditions: sch;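 also: growth inhibition of human SCH cells, read out in a cell viability assay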
Description: SANGER: Inhibition of human SCH cell growth in a cell viability assay.
pIC50: −log10 of the molar value.
readout: pIC50

[[record]]
smiles_notation = "Cc1cc([C@@H](C)Nc2ccccc2C(=O)O)c2nc(N3CCOCC3)cc(=O)n2c1"
readout = "pIC50"
assay_value = "< 5.29"

